Task for the reader: assign each of the following compounds its reported MIC.
Tested on: Citro. freundii
Assay: In vitro antibacterial activity (MIC), Citro. freundii
Assay type: cell-based
Conditions: Citrobacter freundii; Wellcotest sensitivity Test Agar + 7% lysed horse blood
One number for each entry, in µg/mL.

Fill in MIC for each of the 2 compounds listed.
1. CC(=O)OC[C@H]1O[C@@H](n2cc(C)c(-n3cncn3)nc2=O)C[C@@H]1N=[N+]=[N-]
2. Cc1cn([C@H]2C[C@H](N=[N+]=[N-])[C@@H](CO)O2)c(OCc2ccccc2)nc1=O

10
10

###

Tested on: Citro. freundii
Assay: In vitro antibacterial activity (MIC), Citro. freundii
Assay type: cell-based
Conditions: Citrobacter freundii; Wellcotest sensitivity Test Agar + 7% lysed horse blood
metric: MIC

COc1cc(Cc2cnc(N)nc2N)cc(OC)c1OC [Trimethoprim, reference compound] ... 0.5 µg/mL
CC(=O)OC[C@H]1O[C@@H](n2cc(C)c(=S)[nH]c2=O)C[C@@H]1N=[N+]=[N-] ... 10 µg/mL
COc1nc(=O)c(C)cn1[C@H]1C[C@H](N=[N+]=[N-])[C@@H](CO)O1 ... 10 µg/mL
Cc1cn([C@H]2C[C@H](N=[N+]=[N-])[C@@H](CO)O2)c(=O)[nH]c1=S ... 10 µg/mL

# returns recorded MIC (system: Citro. freundii) for Cc1cn([C@H]2C[C@H](N=[N+]=[N-])[C@@H](CO)O2)c(=S)[nH]c1=O
10 µg/mL
